# TESTED TARGET: UniProtKB P14416
# Sequence (P14416 whole entry): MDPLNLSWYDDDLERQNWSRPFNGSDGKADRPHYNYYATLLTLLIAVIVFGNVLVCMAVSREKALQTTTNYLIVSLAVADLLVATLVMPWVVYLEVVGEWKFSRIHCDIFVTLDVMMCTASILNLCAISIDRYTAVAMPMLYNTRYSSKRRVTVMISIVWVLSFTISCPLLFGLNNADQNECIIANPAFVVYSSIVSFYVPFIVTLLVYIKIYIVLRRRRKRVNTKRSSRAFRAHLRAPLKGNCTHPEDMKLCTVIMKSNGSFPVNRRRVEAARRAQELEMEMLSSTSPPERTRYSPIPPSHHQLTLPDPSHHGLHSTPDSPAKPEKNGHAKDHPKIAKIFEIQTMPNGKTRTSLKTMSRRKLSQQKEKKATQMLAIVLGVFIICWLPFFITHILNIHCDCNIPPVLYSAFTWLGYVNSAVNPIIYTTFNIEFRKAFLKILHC
# METHOD DESCRIPTION: Displacement of [3H]spiperone from human D2-short receptor expressed in CHO cell membranes
pKi: −log10 of the molar value.
pKi values by entry
QUANTITY KIND: pKi

- LINE NOTATION: "CC(C)(C)c1nc(N2CCN(CCCCNC(=O)c3cc4ccccc4s3)CC2)cc(C(F)(F)F)n1"
  QUANTITY KIND: "pKi"
  VALUE: 5.57
- LINE NOTATION: "CC(C)(C)c1nc(N2CCN(CCCCNC(=O)c3cc4ccccn4n3)CC2)cc(C(F)(F)F)n1"
  QUANTITY KIND: "pKi"
  VALUE: 6.70
- LINE NOTATION: "O=C(NCCCCN1CCN(c2ccccc2OCCF)CC1)c1cc2ccccn2n1"
  QUANTITY KIND: "pKi"
  VALUE: 7.68
- LINE NOTATION: "O=C(NCCCCN1CC[N+]2(CCOc3ccccc32)CC1)c1cc2ccccn2n1"
  QUANTITY KIND: "pKi"
  VALUE: 5.35

* * *

# TESTED TARGET: 5-hydroxytryptamine receptor 2A (Homo sapiens)
# Sequence (P28223 whole entry): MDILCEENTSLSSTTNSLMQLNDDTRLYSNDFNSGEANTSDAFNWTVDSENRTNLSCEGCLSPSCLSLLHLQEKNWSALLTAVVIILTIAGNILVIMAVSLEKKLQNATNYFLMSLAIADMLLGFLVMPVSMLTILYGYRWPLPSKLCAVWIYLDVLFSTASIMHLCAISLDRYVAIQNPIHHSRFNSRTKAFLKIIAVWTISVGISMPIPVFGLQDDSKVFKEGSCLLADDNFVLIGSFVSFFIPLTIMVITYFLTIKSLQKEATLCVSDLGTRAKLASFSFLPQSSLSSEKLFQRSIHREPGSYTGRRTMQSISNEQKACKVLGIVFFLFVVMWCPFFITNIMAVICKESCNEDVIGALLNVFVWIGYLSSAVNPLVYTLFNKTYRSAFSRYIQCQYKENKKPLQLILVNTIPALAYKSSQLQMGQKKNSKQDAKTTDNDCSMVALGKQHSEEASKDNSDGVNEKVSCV
# METHOD DESCRIPTION: Displacement of [3H]ketanserin from human 5-HT2A receptor expressed in HEK293T cell membranes
# Design: species or system HEK-293T

- LINE NOTATION: "CC(C)(C)c1nc(N2CCN(CCCCNC(=O)c3cc4ccccn4n3)CC2)cc(C(F)(F)F)n1"
  COMPARISON OPERATOR: "="
  Ki, µM: 2.7
- LINE NOTATION: "O=C(NCCCCN1CCN(c2ccccc2OCCF)CC1)c1cc2ccccn2n1"
  COMPARISON OPERATOR: "="
  Ki, µM: 0.52
- LINE NOTATION: "O=C(NCCCCN1CC[N+]2(CCOc3ccccc32)CC1)c1cc2ccccn2n1"
  COMPARISON OPERATOR: ">"
  Ki, µM: 10

These entries and their values trace back to ChEMBL document CHEMBL4052643.
